The reported measurements were obtained from the NIST ThermoML archive (doi:10.1021/je0502647).

experimentDescription: activity coefficient (dimensionless); of the first substance listed, at infinite dilution; xn = mol fraction of the nth substance listed
testSettings: 309.98 K; Liquid; gas stripping method; x1 = 0
Listed compounds paired with reported activity coefficient

{"columns": ["compound", "activity coefficient"],
 "data": [
  ["CCCl [chloroethane] + C=CCO", 2.87],
  ["COC [dimethyl ether] + C=CCO", 1.2],
  ["C/C=C\\C [(Z)-2-butene] + C=CCO", 4.85],
  ["CC(F)F [1,1-difluoroethane] + C=CCO", 4.39]
]}

* * *

experimentDescription: activity coefficient (dimensionless); of the first substance listed, at infinite dilution; xn = mol fraction of the nth substance listed
testSettings: 270.01 K; Liquid; gas stripping method; x1 = 0
reportedEndpoint: activity coefficient

{"columns": ["compound", "recordedResult"],
 "data": [
  ["C=CCC [1-butene] + C=CCO", 5.85],
  ["C=CC=C [1,3-butadiene] + C=CCO", 4.06],
  ["CC(C)C [2-methylpropane] + C=CCO", 9.51],
  ["CCCC [butane] + C=CCO", 8.84]
]}

* * *

experimentDescription: activity coefficient (dimensionless); of the first substance listed, at infinite dilution; xn = mol fraction of the nth substance listed
testSettings: 310 K; Liquid; gas stripping method; x1 = 0
reportedEndpoint: activity coefficient

{"columns": ["compound", "recordedResult"],
 "data": [
  ["C=CC=C [1,3-butadiene] + C=CCO", 3.89],
  ["CC(C)C [2-methylpropane] + C=CCO", 8.11],
  ["CCCC [butane] + C=CCO", 7.58],
  ["C/C=C/C [(E)-2-butene] + C=CCO", 5.38],
  ["C=CCC [1-butene] + C=CCO", 5.35]
]}

* * *

experimentDescription: activity coefficient (dimensionless); of the first substance listed, at infinite dilution; xn = mol fraction of the nth substance listed
testSettings: 329.99 K; Liquid; gas stripping method; x1 = 0
Label criterion met when activity coefficient is strictly below 4; at or above that, label criterion not met.

{"columns": ["compound", "category"],
 "data": [
  ["C/C=C\\C [(Z)-2-butene] + C=CCO", "criterion not met"],
  ["CCCl [chloroethane] + C=CCO", "criterion met"],
  ["CCCC [butane] + C=CCO", "criterion not met"],
  ["C=CC=C [1,3-butadiene] + C=CCO", "criterion met"],
  ["CC(C)C [2-methylpropane] + C=CCO", "criterion not met"],
  ["C/C=C/C [(E)-2-butene] + C=CCO", "criterion not met"],
  ["C=CCC [1-butene] + C=CCO", "criterion not met"],
  ["COC [dimethyl ether] + C=CCO", "criterion met"]
]}

* * *

experimentDescription: activity coefficient (dimensionless); of the first substance listed, at infinite dilution; xn = mol fraction of the nth substance listed
testSettings: 270.06 K; Liquid; gas stripping method; x1 = 0

{"columns": ["compound", "activity coefficient"],
 "data": [
  ["C/C=C\\C [(Z)-2-butene] + C=CCO", 5.28],
  ["CC(F)F [1,1-difluoroethane] + C=CCO", 4.94],
  ["COC [dimethyl ether] + C=CCO", 1.22],
  ["CCCl [chloroethane] + C=CCO", 3.07]
]}

* * *

experimentDescription: activity coefficient (dimensionless); of the first substance listed, at infinite dilution; xn = mol fraction of the nth substance listed
testSettings: 249.94 K; Liquid; gas stripping method; x1 = 0

{"columns": ["compound", "activity coefficient"],
 "data": [
  ["COC [dimethyl ether] + C=CCO", 1.23],
  ["C/C=C\\C [(Z)-2-butene] + C=CCO", 5.53],
  ["CCCl [chloroethane] + C=CCO", 3.09],
  ["C=CCC [1-butene] + C=CCO", 6.08],
  ["CC(F)F [1,1-difluoroethane] + C=CCO", 5.09],
  ["CC(C)C [2-methylpropane] + C=CCO", 10.5]
]}

* * *

Listed compounds paired with reported activity coefficient
experimentDescription: activity coefficient (dimensionless); of the first substance listed, at infinite dilution; xn = mol fraction of the nth substance listed
testSettings: 289.99 K; Liquid; gas stripping method; x1 = 0

{"columns": ["compound", "activity coefficient"],
 "data": [
  ["CCCl [chloroethane] + C=CCO", 2.99],
  ["CC(F)F [1,1-difluoroethane] + C=CCO", 4.68],
  ["C=CC=C [1,3-butadiene] + C=CCO", 4.02],
  ["COC [dimethyl ether] + C=CCO", 1.2],
  ["C/C=C/C [(E)-2-butene] + C=CCO", 5.67],
  ["CCCC [butane] + C=CCO", 8.2],
  ["C=CCC [1-butene] + C=CCO", 5.62],
  ["CC(C)C [2-methylpropane] + C=CCO", 8.83],
  ["C/C=C\\C [(Z)-2-butene] + C=CCO", 5.06]
]}
